- Tested on: T-47D breast
- assay_procedure: NCI tumour cell line growth inhibition, 48 h; in the data active = GI50 below about 0.43 µM; inactive = the rest
Possible outcomes: yes (1) (active), no (0) (inactive)

{"molecule": "Cc1c(C)c2c(c(C)c1OC(=O)CCC(=O)[O-])CCC(C)(CCCCCCCCCCC[P+](c1ccccc1)(c1ccccc1)c1ccccc1)O2 (centres undefined)", "class_label": "yes (1)"}
{"molecule": "Clc1ccc(-c2cc(-c3ccccc3)nc(N3CCN(CCCNc4ccnc5cc(Cl)ccc45)CC3)n2)cc1", "class_label": "no (0)"}
{"molecule": "C=CC(=O)N[C@@H]1CN(c2nc(Nc3cn(C)nc3OC)c3ncn(C)c3n2)C[C@H]1F", "class_label": "no (0)"}
{"molecule": "COc1ccc2[nH]c(Cl)c(/C=C3/C(=O)Nc4ccccc43)c2c1", "class_label": "no (0)"}

---

- Tested on: SK-MEL-2 melanoma
- assay_procedure: NCI tumour cell line growth inhibition, 48 h

{"given_smiles": "CN(C)c1ccc(C(=S)c2ccc(N(C)C)cc2)cc1", "GI50": "3.53 µM"}
{"given_smiles": "Cc1cc2c(cc1Cl)SC(N(c1ccccc1Cl)S(=O)(=O)c1ccc(Br)s1)=NS2(=O)=O", "GI50": "12.8 µM"}
{"given_smiles": "O=C(COc1ccc(/C=C2\\Oc3ccc4ccccc4c3C2=O)cc1)c1ccc([N+](=O)[O-])cc1", "GI50": "15.5 µM"}

---

Catalogue of GI50 values
- Tested on: A549 NSCLC
- assay_procedure: NCI tumour cell line growth inhibition, 48 h

{"compound": "CN1CCN(CCCOc2cccc3nc(Nc4cc(Cl)cc(Cl)c4)ccc23)CC1", "GI50": "1.98 µM"}
{"compound": "C[C@@H](Nc1nc(N[C@H](C)C(F)(F)F)nc(-c2cccc(Cl)n2)n1)C(F)(F)F", "GI50": "50.3 µM"}
{"compound": "NC(N)=NN=c1c(=O)c2ccccc2c1=O", "GI50": "12.4 µM"}
{"compound": "O=CC(OC(=O)c1ccccc1)C(OC(=O)c1ccccc1)C(COC(c1ccccc1)(c1ccccc1)c1ccccc1)OC(=O)c1ccccc1 (centres undefined)", "GI50": "22.1 µM"}
{"compound": "C1=N[C@]23C(=N[C@H](N=C2NCc2ccco2)[C@]24N=CNC2=N[C@H]3N=C4NCc2ccco2)N1", "GI50": "> 100 µM"}
{"compound": "Cc1cc(F)c(C(=O)Nc2cccc(-c3nncn3C(C)C)n2)cc1-n1cnc(C2CC2)c1", "GI50": "15.2 µM"}
{"compound": "Cc1cccc2c(C3=C(c4cn(C)c5ccccc45)C(=O)NC3=O)cn(C)c12", "GI50": "> 25 µM"}
{"compound": "COc1ccc(-n2cc(-c3cc(OC)c(OC)c(OC)c3)nc2SCc2ccc(Cl)cc2)cc1OC", "GI50": "53.2 µM"}
{"compound": "Cc1nc2ccccn2c1NC(=O)NN1C(=O)CSC1c1ccc(Cl)cc1 (centres undefined)", "GI50": "> 100 µM"}

---

- Tested on: SNB-75 CNS
- assay_procedure: NCI tumour cell line growth inhibition, 48 h; in the data active means GI50 below about 0.43 µM; inactive means the rest
Classes used: y = active, n = inactive

{"compound": "CC1(C)OB(c2ccc(N(CCOS(C)(=O)=O)CCOS(C)(=O)=O)cc2)OC1(C)C", "class_label": "n"}
{"compound": "Cc1cccc2c(C3=C(c4cn(C)c5ccccc45)C(=O)NC3=O)cn(C)c12", "class_label": "n"}
{"compound": "O=C(Nc1ccc(OS(=O)(=O)c2ccc(F)cc2)cc1)C12CC3CC(CC(C3)C1)C2", "class_label": "n"}
{"compound": "CCn1cnc(C[C@H](NC(=O)[C@H](CCCCNC(=O)Nc2cc(C(F)(F)F)cc(C(F)(F)F)c2)NC(=O)Nc2cc(C(F)(F)F)cc(C(F)(F)F)c2)C(=O)OC)c1", "class_label": "n"}
{"compound": "C[C@@H]1CC[C@H]2[C@@H](C)C(O)O[C@@H]3O[C@]4(C)CC[C@@H]1[C@]32OO4 (stereo partly drawn)", "class_label": "n"}
{"compound": "Nc1nc(N)c2c(n1)NC(c1sc(Cl)nc1Cl)CC(c1ccccc1)=N2 (stereo not drawn)", "class_label": "n"}
{"compound": "CCN(C(=O)N1CCN(c2cc3c(cc2F)c(=O)c(C(=O)O)cn3C2CC2)CC1)c1nc(-c2ccccc2)cs1", "class_label": "n"}
{"compound": "Cc1c(C)c2c(c(C)c1OC(=O)CCC(=O)[O-])CCC(C)(CCCCCCCCCCC[P+](c1ccccc1)(c1ccccc1)c1ccccc1)O2 (stereo not drawn)", "class_label": "y"}
{"compound": "CN(C)c1ccc(C(=S)c2ccc(N(C)C)cc2)cc1", "class_label": "n"}
{"compound": "O=C1c2c(O)cccc2C(C(=O)CCCCCC(=O)C2c3cccc(O)c3C(=O)c3c(O)cccc32)c2cccc(O)c21", "class_label": "n"}
{"compound": "CCOC(=O)/C(=C/CC/C(C)=C/CC/C(C)=C/CCc1ccoc1)CC(=O)N1CCCCC1", "class_label": "n"}
{"compound": "O=C(NC1CCN(Cc2ccccc2)CC1)c1cc(-c2cccnc2)nc2ccc(Cl)cc12", "class_label": "n"}
{"compound": "CNC(=O)c1cc(Oc2ccc3nc(NC(=O)Nc4ccc(CN5CCOCC5)c(C(F)(F)F)c4)sc3c2)ccn1", "class_label": "n"}

---

- Test system: LOX IMVI melanoma
- assay_procedure: NCI tumour cell line growth inhibition, 48 h
# TGI listing for each entry below
quantity: TGI (µM)

{"molecule": "CCCCCCCCSC(=O)NCCCC", "inequality_sign": "=", "experimental_value": 40.2}
{"molecule": "CC(=O)Nc1ccc(-c2nnc(SCC(=O)Nc3cccc(C)c3)o2)cc1", "inequality_sign": "=", "experimental_value": 15.6}
{"molecule": "CC(C)C[S+]1C2=C([O-])CC(C)(C)CC2=Nc2ccccc21 (configuration not stated)", "inequality_sign": ">", "experimental_value": 100}
{"molecule": "Cc1ccc(S(=O)(=O)N(CC(O)COc2ccccc2)c2c(F)c(F)cc(F)c2F)cc1 (configuration not stated)", "inequality_sign": "=", "experimental_value": 37.6}
{"molecule": "Clc1ccc(-c2cc(-c3ccccc3)nc(N3CCN(CCCNc4ccnc5cc(Cl)ccc45)CC3)n2)cc1", "inequality_sign": "=", "experimental_value": 3.19}
{"molecule": "C[C@@H]1CC[C@H]2[C@@H](C)C(O)O[C@@H]3O[C@]4(C)CC[C@@H]1[C@]32OO4 (some centres not stated)", "inequality_sign": "=", "experimental_value": 0.973}
{"molecule": "N#C/C(=C\\c1ccc(O)c(O)c1)C(=O)NCc1ccc(C(F)(F)F)cc1", "inequality_sign": "=", "experimental_value": 20.4}
{"molecule": "Oc1ccc(NC(=S)Nc2ccccc2)cc1", "inequality_sign": ">", "experimental_value": 100}
{"molecule": "c1ccc2c(c1)nnn2CNc1ccc(N2CCCCC2)cc1", "inequality_sign": ">", "experimental_value": 100}
{"molecule": "O/N=C1/CCC/C1=C\\c1ccccc1", "inequality_sign": ">", "experimental_value": 100}
{"molecule": "O=c1oc2cc(O)ccc2c2[nH]c3cc(O)ccc3c12", "inequality_sign": "=", "experimental_value": 33.8}
{"molecule": "Nc1nc(Cl)cc(NCC2(CO)CCCCC2)n1", "inequality_sign": ">", "experimental_value": 100}
{"molecule": "O=C(Nc1ccccc1[N+](=O)[O-])/C(=N/Nc1cccc(Cl)c1)c1c(O)c2ccccc2oc1=O", "inequality_sign": ">", "experimental_value": 100}
{"molecule": "c1ccc2c(c1)[nH]c1cnc3c4ncccc4[nH]c3c12", "inequality_sign": ">", "experimental_value": 100}
{"molecule": "CCOC(=O)/C(Br)=C1\\OC(=O)c2ccccc2-c2ccccc21", "inequality_sign": ">", "experimental_value": 100}
{"molecule": "COc1ccc(C(=O)/C=C/c2sc(Cl)nc2Cl)cc1", "inequality_sign": "=", "experimental_value": 1.36}
{"molecule": "C/C=C1\\CC(C(=O)OCC)CCCCCCC1=O (configuration not stated)", "inequality_sign": ">", "experimental_value": 100}
{"molecule": "O=[N+]([O-])c1cc(C2(N3CCCCC3)CCCCC2)sc1Br", "inequality_sign": "=", "experimental_value": 15.1}
{"molecule": "O=CC(OC(=O)c1ccccc1)C(OC(=O)c1ccccc1)C(COC(c1ccccc1)(c1ccccc1)c1ccccc1)OC(=O)c1ccccc1 (configuration not stated)", "inequality_sign": "=", "experimental_value": 27.3}
{"molecule": "CC(=O)O[C@@H]1[C@H](OC2CCCCC2(c2ccccc2)c2ccccc2)O[N+]([O-])=CC12CCCCC2 (some centres not stated)", "inequality_sign": "=", "experimental_value": 46.2}
{"molecule": "N#CCc1c(F)c(F)c(F)c(F)c1F", "inequality_sign": ">", "experimental_value": 100}
{"molecule": "COc1c(C)c(C/C=C(\\C)CC/C=C(\\C)CC/C=C(\\C)CCC=C(C)C)c(OC)c(OC)c1OC", "inequality_sign": ">", "experimental_value": 100}
